experiment: Single-dose pharmacokinetic study, plasma MnBuOE by LC-MS/MS; type: in vivo, dog; settings: single 1 mg/kg sc; first order absorption two compartments
experimental endpoint: C max
Please answer using a numeric value trailed by its unit.

# C max lookup, item `CCCCOCC[n+]1ccccc1-c1c2nc(c(-c3cccc[n+]3CCOCCCC)c3ccc([n-]3)c(-c3cccc[n+]3CCOCCCC)c3nc(c(-c4cccc[n+]4CCOCCCC)c4ccc1[n-]4)C=C3)C=C2.[Mn+3]` 4.83 µg/mL
